tested on: Triticum aestivum; assay: Inhibition of binding of HRP labeled WGA to immobilized N-acetyl-glucosamine relative to N-acetyl-glucosamine
Measured Activity of individual entries
Assay Metric: Activity

Molecular String	Tgt	Assay Metric	Result Value
CC(=O)N[C@H]1[C@H](OC/C=C\CO)O[C@H](CO)[C@@H](O)[C@@H]1O	Triticum aestivum	Activity	1.9
CC(=O)N[C@H]1[C@H](OC/C=C\COC(=O)NCCN(CCNC(=O)OC/C=C\CO[C@@H]2O[C@H](CO)[C@@H](O)[C@H](O)[C@H]2NC(C)=O)CCNC(=O)OC/C=C\CO[C@@H]2O[C@H](CO)[C@@H](O)[C@H](O)[C@H]2NC(C)=O)O[C@H](CO)[C@@H](O)[C@@H]1O	Triticum aestivum	Activity	420
CC(=O)N[C@H]1[C@H](OC/C=C\COC(=O)NCc2ccc(CNC(=O)OC/C=C\CO[C@@H]3O[C@H](CO)[C@@H](O)[C@H](O)[C@H]3NC(C)=O)cc2)O[C@H](CO)[C@@H](O)[C@@H]1O	Triticum aestivum	Activity	260
C=CCO[C@@H]1O[C@H](CO)[C@@H](O)[C@H](O)[C@H]1NC(C)=O	Triticum aestivum	Activity	2.3
CC(=O)N[C@H]1[C@H](OC/C=C\COC(=O)NCCCOCCOCCOCCCNC(=O)OC/C=C/CO[C@@H]2O[C@H](CO)[C@@H](O)[C@H](O)[C@H]2NC(C)=O)O[C@H](CO)[C@@H](O)[C@@H]1O	Triticum aestivum	Activity	80

====

system: Triticum aestivum; experiment: Inhibition of binding of HRP labeled WGA to immobilized porcine stomach […] relative to N-acetyl-glucosamine
Measured Activity of individual entries
Assay Metric: Activity

Compound	Result Value
CC(=O)N[C@H]1[C@H](OC/C=C\COC(=O)NCCCOCCCCOCCCNC(=O)OC/C=C\CO[C@@H]2O[C@H](CO)[C@@H](O)[C@H](O)[C@H]2NC(C)=O)O[C@H](CO)[C@@H](O)[C@@H]1O	17
CC(=O)N[C@@H]1[C@@H](O)[C@H](O)[C@@H](CO)O[C@H]1O [N-ACETYLGLUCOSAMINE]	1
CC(=O)N[C@H]1[C@H](OC/C=C\COC(=O)NCCN(CCNC(=O)OC/C=C\CO[C@@H]2O[C@H](CO)[C@@H](O)[C@H](O)[C@H]2NC(C)=O)CCNC(=O)OC/C=C\CO[C@@H]2O[C@H](CO)[C@@H](O)[C@H](O)[C@H]2NC(C)=O)O[C@H](CO)[C@@H](O)[C@@H]1O	40
CC(=O)N[C@H]1[C@H](OC/C=C\COC(=O)NCc2ccc(CNC(=O)OC/C=C\CO[C@@H]3O[C@H](CO)[C@@H](O)[C@H](O)[C@H]3NC(C)=O)cc2)O[C@H](CO)[C@@H](O)[C@@H]1O	67
C=CCO[C@@H]1O[C@H](CO)[C@@H](O)[C@H](O)[C@H]1NC(C)=O	3.6
CC(=O)N[C@H]1[C@H](OC/C=C\COC(=O)NCCNCCNC(=O)OC/C=C\CO[C@@H]2O[C@H](CO)[C@@H](O)[C@H](O)[C@H]2NC(C)=O)O[C@H](CO)[C@@H](O)[C@@H]1O	25
CC(=O)N[C@H]1[C@H](OC/C=C\COC(=O)NCc2cccc(CNC(=O)OC/C=C\CO[C@@H]3O[C@H](CO)[C@@H](O)[C@H](O)[C@H]3NC(C)=O)c2)O[C@H](CO)[C@@H](O)[C@@H]1O	50
CC(=O)N[C@H]1[C@H](OC/C=C\COC(=O)NCCCOCCOCCOCCCNC(=O)OC/C=C/CO[C@@H]2O[C@H](CO)[C@@H](O)[C@H](O)[C@H]2NC(C)=O)O[C@H](CO)[C@@H](O)[C@@H]1O	13
CC(=O)N[C@H]1[C@H](OC/C=C\COC(=O)NCc2ccccc2)O[C@H](CO)[C@@H](O)[C@@H]1O	10
CCCNC(=O)OC/C=C\CO[C@@H]1O[C@H](CO)[C@@H](O)[C@H](O)[C@H]1NC(C)=O	4.2
CC(=O)N[C@H]1[C@H](OC/C=C\CO)O[C@H](CO)[C@@H](O)[C@@H]1O	2

====

experiment: Inhibition of binding of HRP labeled WGA to immobilized porcine stomach […]; parameters: species or system Triticum aestivum
Assay Metric: IC50 (mM)

Molecular String	Assay Metric	Result Value
CC(=O)N[C@H]1[C@H](OC/C=C\COC(=O)NCCCOCCOCCOCCCNC(=O)OC/C=C/CO[C@@H]2O[C@H](CO)[C@@H](O)[C@H](O)[C@H]2NC(C)=O)O[C@H](CO)[C@@H](O)[C@@H]1O	IC50	75
CC(=O)N[C@H]1[C@H](OC/C=C\CO)O[C@H](CO)[C@@H](O)[C@@H]1O	IC50	500
CC(=O)N[C@H]1[C@H](OC/C=C\COC(=O)NCc2cccc(CNC(=O)OC/C=C\CO[C@@H]3O[C@H](CO)[C@@H](O)[C@H](O)[C@H]3NC(C)=O)c2)O[C@H](CO)[C@@H](O)[C@@H]1O	IC50	20
CC(=O)N[C@H]1[C@H](OC/C=C\COC(=O)NCCNCCNC(=O)OC/C=C\CO[C@@H]2O[C@H](CO)[C@@H](O)[C@H](O)[C@H]2NC(C)=O)O[C@H](CO)[C@@H](O)[C@@H]1O	IC50	40
CCCNC(=O)OC/C=C\CO[C@@H]1O[C@H](CO)[C@@H](O)[C@H](O)[C@H]1NC(C)=O	IC50	240
C=CCO[C@@H]1O[C@H](CO)[C@@H](O)[C@H](O)[C@H]1NC(C)=O	IC50	280

====

assay: Inhibition of binding of HRP labeled WGA to immobilized N-acetyl-glucosamine; parameters: species or system Triticum aestivum
pIC50: −log10 of the molar value.

Molecule	pIC50
C=CCO[C@@H]1O[C@H](CO)[C@@H](O)[C@H](O)[C@H]1NC(C)=O	5.00
CC(=O)N[C@H]1[C@H](OC/C=C\COC(=O)NCCCOCCOCCOCCCNC(=O)OC/C=C/CO[C@@H]2O[C@H](CO)[C@@H](O)[C@H](O)[C@H]2NC(C)=O)O[C@H](CO)[C@@H](O)[C@@H]1O	6.54
CC(=O)N[C@H]1[C@H](OC/C=C\COC(=O)NCCN(CCNC(=O)OC/C=C\CO[C@@H]2O[C@H](CO)[C@@H](O)[C@H](O)[C@H]2NC(C)=O)CCNC(=O)OC/C=C\CO[C@@H]2O[C@H](CO)[C@@H](O)[C@H](O)[C@H]2NC(C)=O)O[C@H](CO)[C@@H](O)[C@@H]1O	7.26
CC(=O)N[C@@H]1[C@@H](O)[C@H](O)[C@@H](CO)O[C@H]1O [N-ACETYLGLUCOSAMINE]	4.64
CC(=O)N[C@H]1[C@H](OC/C=C\CO)O[C@H](CO)[C@@H](O)[C@@H]1O	4.92
CC(=O)N[C@H]1[C@H](OC/C=C\COC(=O)NCc2ccc(CNC(=O)OC/C=C\CO[C@@H]3O[C@H](CO)[C@@H](O)[C@H](O)[C@H]3NC(C)=O)cc2)O[C@H](CO)[C@@H](O)[C@@H]1O	7.06

====

assay: Inhibition of binding of HRP labeled WGA to immobilized porcine stomach […]; set-up: species or system Triticum aestivum
Measured IC50 of individual entries

Molecular String	IC50, mM
CC(=O)N[C@H]1[C@H](OC/C=C\COC(=O)NCc2ccc(CNC(=O)OC/C=C\CO[C@@H]3O[C@H](CO)[C@@H](O)[C@H](O)[C@H]3NC(C)=O)cc2)O[C@H](CO)[C@@H](O)[C@@H]1O	15
CC(=O)N[C@@H]1[C@@H](O)[C@H](O)[C@@H](CO)O[C@H]1O	1000
CC(=O)N[C@H]1[C@H](OC/C=C\COC(=O)NCCCOCCCCOCCCNC(=O)OC/C=C\CO[C@@H]2O[C@H](CO)[C@@H](O)[C@H](O)[C@H]2NC(C)=O)O[C@H](CO)[C@@H](O)[C@@H]1O	60
CC(=O)N[C@H]1[C@H](OC/C=C\COC(=O)NCCN(CCNC(=O)OC/C=C\CO[C@@H]2O[C@H](CO)[C@@H](O)[C@H](O)[C@H]2NC(C)=O)CCNC(=O)OC/C=C\CO[C@@H]2O[C@H](CO)[C@@H](O)[C@H](O)[C@H]2NC(C)=O)O[C@H](CO)[C@@H](O)[C@@H]1O	25
CC(=O)N[C@H]1[C@H](OC/C=C\COC(=O)NCc2ccccc2)O[C@H](CO)[C@@H](O)[C@@H]1O	100
